- Tested on: COLO 205 colorectal tumor cells
- run_description: Tumor cell viability inhibition assay (CellTiter-Glo 2.0, 72 hours)
- Type: cell-based
- condition_notes: COLO 205 cell viability
readout_label: IC50

molecule	target	readout_label	result
Cc1nc2c(c(=O)n1CC#Cc1ccc(Cl)cc1-c1ccnc3c(C(=O)NS(C)(=O)=O)csc13)CC(N1CCC(OC(F)(F)F)CC1)CC2 (single isomer, unassigned)	COLO 205 colorectal tumor cells	IC50	< 5 µM
Cc1nc2c(c(=O)n1CC#Cc1ccc(Cl)cc1-c1ccnc3c(C(=O)O)csc13)CC(N(C)C)CC2 (single isomer, unassigned)	COLO 205 colorectal tumor cells	IC50	> 20 µM
Cc1cc(-c2cc(Cl)ccc2OCCn2c(C)nc3c(c2=O)CC(N(C)C)CC3)c2scc(C(=O)O)c2n1 (single isomer, unassigned)	COLO 205 colorectal tumor cells	IC50	5 to 20 µM
Cc1cc(-c2cc(Cl)ccc2OCCn2c(C)nc3c(c2=O)CC(C)(N(C)CC2CC(F)(F)C2)CC3)c2scc(C(=O)O)c2n1 (single isomer, unassigned)	COLO 205 colorectal tumor cells	IC50	< 5 µM
Cc1cc(-c2cc(Cl)ccc2OCCn2c(C)nc3c(c2=O)CC(N2CCC(F)(F)CC2)CC3)c2scc(C(=O)NS(C)(=O)=O)c2n1 (single isomer, unassigned)	COLO 205 colorectal tumor cells	IC50	< 5 µM
